Test system: Leishmania donovani
Experiment: Growth inhibition of Leishmania donovani SAG-resistant R1 LV patient isolate promastigotes in J774A.1 cells after 5 days
Assay type: functional, organism-based
pIC50: −log10 of the molar value.
value.type: pIC50

Problem: Need pIC50, item NCCCON
Solution: < 3.40

----------
Tested on: J774.A1
Experiment: Growth inhibition of J774A.1 macrophage cells after 24 hrs by MTT method
Format: functional, cell-based
Conditions: Mus musculus, J774.A1, 24 h
value.type: IC50

Problem: Need IC50, item NCCCON
Solution: > 200 µM

----------
Tested on: Leishmania donovani
Assay: Growth inhibition of Leishmania donovani SAG-resistant R2 LV patient isolate promastigotes in J774A.1 cells after 5 days
Format: functional, organism-based
value.type: IC50
Please make sure the unit comes right after the number.

Problem: Need IC50, item NCCCON
Solution: 46 µM
